Reported GI50 by item:
tested on: OVCAR-4; assay: NCI tumour cell line growth inhibition, 48 h
Activity calls are given as the source filed them. Rule as the data show it: active = GI50 up to about 1.1 µM and inactive = higher.

Check out these entries, answers already filled in.
COMPOUND	RECORDED VALUE
CC(C)(C)C1=NO[C@H]2[C@@H](NC(=O)c3ccccc3)CC[C@@H]12	> 100 µM (inactive)
CC1=C(C(=O)Nc2c(C)cccc2C)C(c2ccc3c(c2)OCO3)C(C(=O)Nc2c(C)cccc2C)=C(C)N1	30.3 µM (inactive)
CCCCN(CCCC)C(=O)C(=O)C(C#N)c1ccc(C)cc1 (stereo unspecified)	> 100 µM (inactive)
CC(C)CC(NC(=O)C(O)C(N)Cc1ccccc1)C(=O)O (stereo unspecified)	> 100 µM (inactive)

What reported GI50 corresponds to `NC1=NS(=O)(=O)Nc2nc(-c3ccc(Cl)cc3)c(-c3ccc(Cl)cc3)nc21` on OVCAR-4?
> 100 µM (inactive)

What reported GI50 corresponds to CCCC(N)C(=O)c1ccccc1 (stereo unspecified) on OVCAR-4?
> 100 µM (inactive)

What reported GI50 corresponds to `COC(=O)c1c(CC#N)cccc1CC#N` on OVCAR-4?
> 100 µM (inactive)

What reported GI50 corresponds to O=C1NC2(C=Cc3c(ccc4ccccc34)O2)Oc2ccccc21 (stereo unspecified) on OVCAR-4?
19.1 µM (inactive)

What reported GI50 corresponds to `CCN1C(=O)/C(=C2\SC(c3ccccc3)(c3ccccc3)c3ccccc32)SC1=S` on OVCAR-4?
63.4 µM (inactive)

What reported GI50 corresponds to Cc1ccccc1NC(=O)C(=O)C1CN(c2ccccc2)N=C1N (stereo unspecified) on OVCAR-4?
> 100 µM (inactive)

What reported GI50 corresponds to `COc1ccn(CC(=O)c2cc3ccccc3[nH]2)c(=O)n1` on OVCAR-4?
> 100 µM (inactive)
